assay-target: HRV3C (Human rhinovirus 14, UniProt P03303)
Construct: 3CLpro and HRV3C was added using a Multidrop Combi
Sequence (P03303 1538-1719): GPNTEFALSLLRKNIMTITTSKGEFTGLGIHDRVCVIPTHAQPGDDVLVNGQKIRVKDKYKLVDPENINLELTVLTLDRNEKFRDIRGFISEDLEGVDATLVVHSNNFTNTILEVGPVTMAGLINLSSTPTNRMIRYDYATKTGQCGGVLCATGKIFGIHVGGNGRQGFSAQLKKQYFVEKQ
experiment-summary: biochemical
Design: species or system HRV
setup-conditions: HRV3C, 30 mins preincubation, SAMDI-MS; read-out: HRV IC50 (bound)
Listed here: items and their measured IC50.

compound	IC50
CC(C)(C)[C@H](NC(=O)C(F)(Cl)Cl)C(=O)N1C[C@@H]2[C@@H]3CC[C@@H](C3)[C@@H]2[C@H]1C(=O)N[C@H](C#N)C[C@@H]1CCNC1=O [Compound 67]	> 10 µM
CC(C)(C)[C@H](NC(=O)C(F)(F)Cl)C(=O)N1C[C@H]2[C@@H]([C@H]1C(=O)N[C@H](C#N)C[C@@H]1OCCNC1=O)[C@H]1C=C[C@@H]2C1 [Compound 116]	> 0.5 µM

Reported HRV3C (Human rhinovirus 14, UniProt P03303) IC50 for item CC(C)(C)[C@H](NC(=O)C(F)(F)F)C(=O)N1C[C@@H]2[C@@H]([C@@H]3C=C[C@H]2CC3)[C@@H]1C(=O)N[C@H](C#N)C[C@@H]1CCNC1=O (relative stereo) [Compound 59a] was > 10 µM

Record CC(C)(C)[C@H](NC(=O)C(F)(F)F)C(=O)N1C[C@@H]2[C@@H]3CC[C@@H](C3)[C@@H]2[C@H]1C(=O)N[C@H](C#N)CC1CC2(CC(F)(F)C2)NC1=O (some centres unmarked) [Compound 104] has HRV3C (Human rhinovirus 14, UniProt P03303) IC50 equal to > 0.5 µM

Bench note, HRV3C (Human rhinovirus 14, UniProt P03303): entry CC1(C(=O)N[C@H](C(=O)N2C[C@H]3[C@@H]([C@H]2C(=O)N[C@H](C#N)C[C@@H]2CCNC2=O)[C@H]2C=C[C@@H]3C2)C(C)(C)C)CC1 [Compound 47] , its IC50 = > 10 µM

Entry CC(C)(C)[C@H](NC(=O)C(F)(F)F)C(=O)N1C[C@H]2[C@@H]([C@H]1C(=O)N[C@H](C#N)C[C@@H]1Oc3ccncc3NC1=O)[C@H]1C=C[C@@H]2C1(F)F [Compound 111] ; assay system HRV3C (Human rhinovirus 14, UniProt P03303); IC50 recorded at > 0.5 µM

Values from patent US12252481B2
